MEASUREMENT TARGET: human full length PIK3KA Wild-type (p110α/p85α complex) (Homo sapiens, UniProt P42336)
Construct: Recombinant, catalytically active human full length PIK3KA Wild-type and H1047R mutant were purchased; 6xHis (N); purchased EMD Millipore Sigma 14-602M
EXPERIMENT DESCRIPTION: PI3K-Alpha Kinase (PIK3CA) biochemical activity, wild-type (ADP-Glo)
COND: Soy PI lipid substrate, 20 uM ATP

{"columns": ["COMPOUND", "IC50"],
 "data": [
  ["Cc1cc(C(C)Nc2ccccc2C(=O)O)c2oc(-c3cnn(-c4cccnc4)c3)cc(=O)c2c1 (single isomer, unassigned; isomer 1) [Example 49]", "> 10 µM"],
  ["COc1ncc(-n2cc(-c3oc4c(C(C)Nc5ccccc5C(=O)O)cc(C)cc4c(=O)c3C)cn2)cn1 (single isomer, unassigned)", "1 to 5 µM"],
  ["COc1ccc(-n2cc(-c3cc(=O)c4cc(C)cc(C(C)Nc5ccccc5C(=O)O)c4o3)cn2)cc1C#N (single isomer, unassigned)", "1 to 5 µM"],
  ["Cc1cc(C(C)Nc2ccccc2C(=O)O)c2oc(-c3cccc(C(F)F)n3)cc(=O)c2c1 (single isomer, unassigned; isomer 2)", "5 to 10 µM"],
  ["Cc1cc(C(C)Nc2ccccc2C(=O)O)c2oc(-c3ncccn3)cc(=O)c2c1 (single isomer, unassigned; isomer 2)", "> 10 µM"],
  ["Cc1cc(C(C)Nc2ccccc2C(=O)O)c2oc(-n3nccn3)cc(=O)c2c1 (single isomer, unassigned)", "> 10 µM"]
]}
